# key: entry, value: Ratio IC50
Test: Selectivity index, ratio of IC50 for electric eel AChE to IC50 for quine serum BChE
Just the number, please, no unit attached.

Guide cases for Ratio IC50, answers given:
- CCCCNC(=O)Oc1ccc2nc3n(c(=O)c2c1)CCCN3C: 0.37
- CN1C2=NCCCN2C(=O)c2cc(OCc3ccccc3)ccc21: 0.03
- CCCCCCCNC(=O)Oc1ccc2c(c1)C(=O)N1CCCN=C1N2C: 26.1
- O=c1c2cc(O)ccc2nc2n1CCCN2: 0.28
- COc1cccc(NC(=O)Oc2ccc3c(c2)C(=O)N2CCCN=C2N3C)c1: 0.06

Ask | Which value of Ratio IC50 has been reported for `CCCCCCCNC(=O)Oc1ccc2nc3n(c(=O)c2c1)CCCN3CCCN1CCCCC1` in the records?
Reply | 322

Ask | State the recorded Ratio IC50 for this entry: `CCCCCCCNC(=O)Oc1ccc2nc3n(c(=O)c2c1)CCCN3Cc1ccccc1`
Reply | 3.51

Ask | # Ratio IC50 lookup, item `CN1C2=NCCCN2C(=O)c2cc(O)ccc21`
Reply | 0.21

Ask | Look up Ratio IC50 for this compound: `CCCCNC(=O)Oc1ccc2nc3n(c(=O)c2c1)CCCN3CCCN1CCCCC1`
Reply | 6.35

====

Molecular target: Acetylcholinesterase (Electrophorus electricus) (UniProt O42275)
Sequence (O42275 24-633 limits assumed): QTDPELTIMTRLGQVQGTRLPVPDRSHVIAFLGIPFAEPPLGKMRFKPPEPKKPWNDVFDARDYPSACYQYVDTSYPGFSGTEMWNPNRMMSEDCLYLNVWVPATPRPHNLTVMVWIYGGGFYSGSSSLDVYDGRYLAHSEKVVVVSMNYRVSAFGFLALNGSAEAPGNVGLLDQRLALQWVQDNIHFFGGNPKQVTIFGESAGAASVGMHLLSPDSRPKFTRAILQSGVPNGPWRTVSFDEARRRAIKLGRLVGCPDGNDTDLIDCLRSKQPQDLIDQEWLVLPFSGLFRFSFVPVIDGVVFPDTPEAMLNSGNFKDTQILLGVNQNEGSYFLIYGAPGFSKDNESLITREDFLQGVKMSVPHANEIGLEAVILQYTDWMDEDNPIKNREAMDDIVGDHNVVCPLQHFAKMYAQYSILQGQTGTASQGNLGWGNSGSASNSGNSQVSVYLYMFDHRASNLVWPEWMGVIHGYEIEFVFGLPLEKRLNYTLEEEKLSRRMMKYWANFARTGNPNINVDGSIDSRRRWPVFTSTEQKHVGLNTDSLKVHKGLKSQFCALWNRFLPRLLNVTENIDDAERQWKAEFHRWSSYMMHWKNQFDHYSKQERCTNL
Assay: Inhibition of electric eel AChE at 50 uM using ATC iodide substrate by DTNB based assay
// no (0) strictly below 40% in inhibition; yes (1) otherwise

Would you please look over these solved cases?
• CC(C)c1ccc(NC(=O)Oc2ccc3nc4n(c(=O)c3c2)CCCN4Cc2ccccc2)cc1 = no (0)
• COc1cccc(NC(=O)Oc2ccc3nc4n(c(=O)c3c2)CCCN4Cc2ccccc2)c1 = no (0)
• CN1CCCn2c1nc1ccc(O)cc1c2=O = yes (1)

Note: attention shifts to another entry.
Ask | Please indicate if the recorded inhibition for `CC(C)c1ccc(NC(=O)Oc2ccc3nc4n(c(=O)c3c2)CCCN4)cc1` meets or exceeds 40%.
Reply | no (0)

====

Listed compounds paired with reported Ratio IC50
Experiment: Selectivity index, ratio of IC50 for electric eel AChE to IC50 for quine serum BChE
# output: bare number, no unit

Look over these answered cases.
- COc1cccc(NC(=O)Oc2ccc3nc4n(c(=O)c3c2)CCCN4C)c1: 0.33
- O=C1c2ccccc2NC2=NCCCN12: 0.3
- CCCCCCCNC(=O)Oc1ccc2nc3n(c(=O)c2c1)CCCN3C: 3.41
- CCCCNC(=O)Oc1ccc2c(c1)C(=O)N1CCCN=C1N2C: 0.09

Ask | Need Ratio IC50, item `CC(C)c1ccc(NC(=O)Oc2ccc3nc4n(c(=O)c3c2)CCCN4)cc1`
Reply | 0.5

Ask | So what's the measured Ratio IC50 for this one? `CCCCCCCNC(=O)Oc1ccc2c(c1)CN1CCCN(C)C1=N2`
Reply | 5.31

====

Target: Cholinesterase (Equus caballus) (UniProt P81908)
Sequence (P81908 whole entry): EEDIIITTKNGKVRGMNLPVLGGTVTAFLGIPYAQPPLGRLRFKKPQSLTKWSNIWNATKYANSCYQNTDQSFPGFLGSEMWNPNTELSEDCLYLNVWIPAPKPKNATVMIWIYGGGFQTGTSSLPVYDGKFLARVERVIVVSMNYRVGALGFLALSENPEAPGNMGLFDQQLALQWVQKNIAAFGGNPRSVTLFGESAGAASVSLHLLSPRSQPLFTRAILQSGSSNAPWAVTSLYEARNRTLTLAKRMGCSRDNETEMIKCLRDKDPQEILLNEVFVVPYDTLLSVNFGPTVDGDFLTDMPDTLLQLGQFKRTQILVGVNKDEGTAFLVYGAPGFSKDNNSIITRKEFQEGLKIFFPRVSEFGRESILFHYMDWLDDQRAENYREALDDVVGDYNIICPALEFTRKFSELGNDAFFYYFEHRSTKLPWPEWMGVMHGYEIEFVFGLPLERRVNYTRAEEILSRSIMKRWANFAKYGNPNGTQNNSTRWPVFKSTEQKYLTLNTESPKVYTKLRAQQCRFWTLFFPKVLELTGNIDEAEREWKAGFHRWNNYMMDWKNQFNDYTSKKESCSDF
Assay: Inhibition of equine serum BChE at 50 uM using ATC iodide substrate by DTNB based assay
Cut-off 10% on inhibition, inclusive. At or above means class 1; below means class 0.

Ask | Please tell me: is the compound `O=c1c2cc(O)ccc2nc2n1CCCN2Cc1ccccc1` at or over 10% in terms of inhibition?
Reply | class 1

Ask | Please indicate if the recorded inhibition for `CC(C)c1ccc(NC(=O)Oc2ccc3nc4n(c(=O)c3c2)CCCN4)cc1` meets or exceeds 10%.
Reply | class 1

Ask | Decide: inhibition of `CC(C)c1ccc(NC(=O)Oc2ccc3nc4n(c(=O)c3c2)CCCN4Cc2ccccc2)cc1` >= 10%?
Reply | class 0

====

Experiment: Selectivity index, ratio of IC50 for electric eel AChE to IC50 for quine serum BChE
Rule: Ratio IC50 of 0.2 or more gives fulfilled; anything lower gives not fulfilled.

Here's what some known entries look like.
* CC(C)c1ccc(NC(=O)Oc2ccc3nc4n(c(=O)c3c2)CCCN4C)cc1 | fulfilled
* O=c1c2cc(O)ccc2nc2n1CCCN2CCCN1CCCCC1 | fulfilled
* CC(C)c1ccc(NC(=O)Oc2ccc3c(c2)C(=O)N2CCCN=C2N3C)cc1 | not fulfilled
* O=c1c2cc(OCc3ccccc3)ccc2nc2n1CCCN2CCCN1CCCCC1 | fulfilled

Ask | I'd appreciate it if you could say whether `O=c1c2cc(OCc3ccccc3)ccc2nc2n1CCCN2` has Ratio IC50 at least equal to 0.2.
Reply | not fulfilled

====

Readings of IC50 for the listed molecules
Target: Cholinesterase (Equus caballus)
Sequence (P81908 whole entry): as above
Experiment: Inhibition of equine serum BChE using ATC iodide substrate by DTNB based assay
Conditions: read-out: IC50
Number in µM, nothing else.

- CN1C2=NCCCN2C(=O)c2cc(OCc3ccccc3)ccc21: 21.4

Ask | Suppose we examine the molecule `CCCCNC(=O)Oc1ccc2nc3n(c(=O)c2c1)CCCN3C` ; what IC50 value has been reported?
Reply | 44.3

Ask | What IC50 value was documented for this molecule, `CCCCCCCNC(=O)Oc1ccc2nc3n(c(=O)c2c1)CCCN3C` ?
Reply | 1.75

Ask | Fill blank: measured IC50 of the molecule `CN1CCCN2Cc3cc(OCc4ccccc4)ccc3N=C12` is ____.
Reply | 4.17

Ask | Could you tell me which IC50 is on file for `CCCCCCCNC(=O)Oc1ccc2nc3n(c(=O)c2c1)CCCN3CCCN1CCCCC1` ?
Reply | 0.0247

Ask | Recorded IC50 for `CN1C2=NCCCN2C(=O)c2cc(O)ccc21` , please?
Reply | 55.5

====

Overview of reported log10 IC50 across a group of compounds:
Molecular target: UniProt O42275
Test: Inhibition of electric eel AChE using ATC iodide substrate by DTNB based assay
Details: read-out: IC50
# log10 transformed; quantity=IC50; unit=µM

Guide cases for log10 IC50, answers given:
* CCCCCCCNC(=O)Oc1ccc2nc3n(c(=O)c2c1)CCCN3C | 0.78
* CCCCNC(=O)Oc1ccc2c(c1)CN1CCCN(C)C1=N2 | 0.50
* CCCCCCCNC(=O)Oc1ccc2nc3n(c(=O)c2c1)CCCN3Cc1ccccc1 | 1.95
* O=c1c2cc(O)ccc2nc2n1CCCN2 | 1.75
* CCCCNC(=O)Oc1ccc2nc3n(c(=O)c2c1)CCCN3C | 1.21
* CN1CCCN2Cc3cc(OCc4ccccc4)ccc3N=C12 | -0.08
* CCCCCCCNC(=O)Oc1ccc2nc3n(c(=O)c2c1)CCCN3CCCN1CCCCC1 | 0.90
* CN1CCCN2Cc3cc(O)ccc3N=C12 | 1.20

Ask | # get_value(readout='log10 IC50', item= `CN1C2=NCCCN2C(=O)c2cc(O)ccc21` )
Reply | 1.07

====

Entries annotated with measured IC50
Target: Cholinesterase (Equus caballus)
Experiment: Inhibition of equine serum BChE using ATC iodide substrate by DTNB based assay
Settings: read-out: IC50
Kindly answer with a numeric value in µM, unit omitted.

Ask | Name the recorded IC50 for `CCCCNC(=O)Oc1ccc2c(c1)C(=O)N1CCCN=C1N2C` .
Reply | 43.9

====

Target: Cholinesterase (Equus caballus) (UniProt P81908)
Assay: Inhibition of equine serum BChE at 50 uM using ATC iodide substrate by DTNB based assay
Measured attribute: inhibition (%)
Express your answer in %, writing the number without its unit.

Some compounds with recorded inhibition:
- COc1cccc(NC(=O)Oc2ccc3nc4n(c(=O)c3c2)CCCN4Cc2ccccc2)c1: 11
- CN1CCCN2Cc3cc(O)ccc3N=C12: 53

Ask | Please give the measured inhibition for this compound: `O=c1c2cc(OCc3ccccc3)ccc2nc2n1CCCN2`
Reply | 20

Ask | Form field: reported inhibition of `CN1CCCn2c1nc1ccc(O)cc1c2=O`
Reply | 9

Ask | Entry under review: `CCCCNC(=O)Oc1ccc2nc3n(c(=O)c2c1)CCCN3Cc1ccccc1` . Reported inhibition?
Reply | 8

====

Experiment: Selectivity index, ratio of IC50 for electric eel AChE to IC50 for quine serum BChE
Label satisfied when Ratio IC50 is at or above 2; otherwise label not satisfied.

Ask | hey, is Ratio IC50 for this one >= 2? `CN1CCCN2Cc3cc(O)ccc3N=C12`
Reply | not satisfied

Ask | Given the entry `CN1CCCN2Cc3cc(OCc4ccccc4)ccc3N=C12` , answer whether its Ratio IC50 meets or surpasses 2.
Reply | not satisfied

Ask | Quick check, Ratio IC50 >= 2? `CC(C)c1ccc(NC(=O)Oc2ccc3nc4n(c(=O)c3c2)CCCN4CCCN2CCCCC2)cc1`
Reply | satisfied

Ask | Dear colleague, could you confirm whether `CCCCNC(=O)Oc1ccc2c(c1)CN1CCCN(C)C1=N2` has Ratio IC50 at or above 2?
Reply | satisfied

Ask | Form field: Ratio IC50 at least 2? Entry: `CN1CCCn2c1nc1ccc(OCc3ccccc3)cc1c2=O`
Reply | not satisfied

Ask | Quick check: does `COc1cccc(NC(=O)Oc2ccc3nc4n(c(=O)c3c2)CCCN4CCCN2CCCCC2)c1` have Ratio IC50 greater than or equal to 2?
Reply | satisfied
